All values here come from paper PMC7826789.

# System: EPHA2
# details: Compound Concentration (nM):1000;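 further: KINOMEscan scanMAX binding as percent activity remaining versus control; lower means stronger binding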
Where Percent Control equals or exceeds 90%, the correct label is Condition met; where it does not, the label is Condition not met.

Textbook exercise: given the entry COc1ccc(COc2ccc(Cc3cnc(N)nc3N)cc2OC)cc1 [GW632580X] , state whether its Percent Control is greater than or equal to 90%.
Condition met

# bool: Percent Control of "COc1cc(C)c(N(C)C(=O)CN(C)C)cc1Nc1nc(Nc2cccc(F)c2C(N)=O)c2cc[nH]c2n1" >= 90%
Condition not met

Answer whether Percent Control of O=C1Nc2ccc(C(=O)c3ccco3)cc2C1=Cc1cc(Cl)c(O)c(Cl)c1 [GW406108X] is greater than or equal to 90%.
Condition not met

Determine whether measured Percent Control meets or exceeds 90% for COc1cc2ncn(-c3cc(O[C@H](C)c4ccccc4Cl)c(C(N)=O)s3)c2cc1OC [GSK237701A]
Condition met

Record Cl.O=C(Nc1ccc(Oc2ccc3[nH]c(NC(=O)c4ccco4)nc3c2)cc1)Nc1cc(C(F)(F)F)ccc1F [GW683134A] ; criterion: Percent Control no lower than 90%. Met?
Condition not met

Given the entry Cl.O=C(Nc1ccc(Oc2ccc3[nH]c(NC(=O)c4ccccc4)nc3c2)cc1)Nc1cc(C(F)(F)F)ccc1F [GW709042A] , answer whether its Percent Control meets or surpasses 90%.
Condition not met

* * *

# Tested on: ERK8
# Construct: gene MAPK15
# details: Compound Concentration (nM):1000
measuredQuantity: Percent Control (%)
Write the number in % without appending the unit.

Write down Percent Control measured for item CN(C)CCNC(=O)Nc1ccc(N(C)c2ccnc(Nc3ccc(CS(C)(=O)=O)cc3)n2)cc1.Cl [GW830900A]
78

Fill in reported Percent Control for this entry: COc1cc2ncn(-c3cc(O[C@H](C)c4ccccc4Cl)c(C(N)=O)s3)c2cc1OC [GSK237701A]
84

Note Percent Control for the compound shown: "CCc1ccc(Oc2nccc(-c3c(-c4ccc(F)cc4)ncn3C3CCNCC3)n2)cc1"
100

Could you please provide reported Percent Control for O=C1Nc2ccc(C(=O)c3ccco3)cc2C1=Cc1cc(Cl)c(O)c(Cl)c1 [GW406108X] ? Thanks!
100

Please list Percent Control recorded for the compound C/C(Nc1ccc(S(N)(=O)=O)cc1)=C1/C(=O)Nc2ccccc21 [GW335962X]
100

Kindly indicate its recorded Percent Control. Item: "COc1cc(C)c(N(C)C(=O)CN(C)C)cc1Nc1nc(Nc2cccc(F)c2C(N)=O)c2cc[nH]c2n1"
95

Identify Percent Control associated with the compound NS(=O)(=O)c1ccc(N/N=C2\C(=O)Nc3ccc(C(=O)NCCc4c[nH]cn4)cc32)cc1 [GW300660X]
18

Supply reported Percent Control belonging to this compound: COc1ccc2c(-c3ccnc(Nc4cccc(OC(F)(F)F)c4)n3)cnn2n1 [GW810372X]
3.6

Please report Percent Control for the following compound: CC1=C(C(=O)Nc2ccc3[nH]ncc3c2)C(c2ccc(Cl)c(Cl)c2)CC(=O)N1 (stereo not shown) [GSK299115A]
90

Item CC(C)COC(=O)c1ccc2c(c1)/C(=C/Nc1ccc(S(N)(=O)=O)cc1)C(=O)N2 [GW416981X] : provide Percent Control
1.8

Specify Percent Control for Cl.c1ccc(Cc2nc3ccc(Nc4ncnc5ccccc45)cc3[nH]2)cc1 [GR269666A] and stop.
92

Given "CCn1c(-c2nonc2N)nc2c(C#CC(C)(C)O)nc(OCCNC)cc21.Cl" , respond with its Percent Control.
100

Identify measured Percent Control corresponding to Cl.O=C(Nc1ccc(Oc2ccc3[nH]c(NC(=O)c4ccco4)nc3c2)cc1)Nc1cc(C(F)(F)F)ccc1F [GW683134A]
34

* * *

# Test system: CDK9
# details: Compound Concentration (nM):1000
Would you mind telling me the reported Percent Control of each entry?
Provide only the numeric value, understood in %.

Specify Percent Control for CCS(=O)(=O)c1ccc(OC)c(Nc2ncc(-c3cccc(OC)c3)o2)c1 [GW580509X] and stop.
100

Please give the documented Percent Control of Cc1cc(O)cc(C)c1/C=C/c1cncc(C(N)=O)c1 [GW435821X]
100

Give the reported value of Percent Control for this record: COc1ccc2c(-c3ccnc(Nc4cccc(OC(F)(F)F)c4)n3)cnn2n1 [GW810372X]
97

Tell me measured Percent Control for COc1ccccc1-c1cc(/C=C2\C(=O)Nc3ncc(Br)cc32)cc(Br)c1O [GW442130X] please.
97

Please supply the value of reported Percent Control for the item "CCn1c(-c2nonc2N)nc2c(C#CC(C)(C)O)nc(OCCNC)cc21.Cl"
100

* * *

# Test system: PRKCD
# details: Compound Concentration (nM):1000
measuredQuantity: Percent Control (%)
Record the value in %, omitting the unit from your answer.

// fetch Percent Control; item: Cl.O=C(Nc1ccc(Oc2ccc3[nH]c(NC(=O)c4ccccc4)nc3c2)cc1)Nc1cc(C(F)(F)F)ccc1F [GW709042A] ; system: PRKCD
87

State Percent Control (PRKCD) of Cl.O=C(Nc1ccc(Oc2ccc3[nH]c(NC(=O)c4ccco4)nc3c2)cc1)Nc1cc(C(F)(F)F)ccc1F [GW683134A] .
99

Would you please give the reported Percent Control of Cl.O=S1CCN(Cc2ccc(-c3ccc4ncnc(Nc5ccc(OCc6ccccc6)c(F)c5)c4c3)o2)CC1 [GW576924A] with PRKCD?
100

# assay system PRKCD: give Percent Control of CCc1ccc(Oc2nccc(-c3c(-c4ccc(F)cc4)ncn3C3CCNCC3)n2)cc1 [SB-242719]
100

Enter recorded Percent Control with PRKCD for CC1=C(C(=O)Nc2ccc3[nH]ncc3c2)C(c2ccc(Cl)c(Cl)c2)CC(=O)N1 (stereo not shown) [GSK299115A] here.
100

Answer briefly: Percent Control recorded on PRKCD for COc1ccc(COc2ccc(Cc3cnc(N)nc3N)cc2OC)cc1 [GW632580X]
71

Fill in: Percent Control on PRKCD, entry COc1ccc2[nH]c3c4[nH]c5ccc(OC)cc5c4c4c(c3c2c1)C(=O)NC4=O [GW296115X]
93

* * *

# Tested on: GSK3B
# details: Compound Concentration (nM):1000
measuredQuantity: Percent Control (%)
Please state the figure in %; there is no need to write the unit.

Using the record for Cl.O=S1CCN(Cc2ccc(-c3ccc4ncnc(Nc5ccc(OCc6ccccc6)c(F)c5)c4c3)o2)CC1 [GW576924A] , state its measured Percent Control.
100

Identify the reported Percent Control for the following entry. NS(=O)(=O)c1ccc(Nc2ncc(-c3ccccc3)o2)cc1 [GW572399X]
83

Supply Percent Control value. Item: Cl.O=C(Nc1ccc(Oc2ccc3[nH]c(NC(=O)c4ccco4)nc3c2)cc1)Nc1cc(C(F)(F)F)ccc1F [GW683134A]
88

Entry CN1CCN(C(=O)c2ccc(NC(=O)Nc3ccc(N(C)c4ccnc(Nc5ccc(CS(C)(=O)=O)cc5)n4)cc3)cc2)CC1.Cl [GW830263A] needs its Percent Control filled in; supply it.
95

* * *

Assignment: determine reported Percent Control for the given compounds.
# Tested on: MLK2
# Construct: gene MAP3K10
# details: Compound Concentration (nM):1000
Answer by giving the amount and then stating its unit.

Please report the measured Percent Control for CCS(=O)(=O)c1ccc(OC)c(Nc2ncc(-c3cccc(OC)c3)o2)c1 [GW580509X] tested on MLK2.
100%

Give measured Percent Control for COc1cc(/C=N/Nc2ncnc3[nH]ncc23)ccc1O [GW578748X] (MLK2).
51%

Give the observed Percent Control of COc1ccccc1-c1cc(/C=C2\C(=O)Nc3ncc(Br)cc32)cc(Br)c1O [GW442130X] for MLK2.
100%

# return Percent Control for NS(=O)(=O)c1ccc(Nc2ncc(-c3ccccc3)o2)cc1 [GW572399X] , test system: MLK2
100%

Report value: Percent Control, system: MLK2, compound: Cl.O=C(Nc1ccc(Oc2ccc3[nH]c(NC(=O)c4ccco4)nc3c2)cc1)Nc1cc(C(F)(F)F)ccc1F [GW683134A]
82%

Give Percent Control for COc1cccc(-n2ncc3c(N/N=C/c4ccncc4)ncnc32)c1 [GW784752X] tested on MLK2.
73%

Please report the measured Percent Control for CCS(=O)(=O)c1ccc(OC)c(Nc2ncc(-c3cccc(F)c3)o2)c1 [GW621970X] tested on MLK2.
95%

Recall the reported Percent Control of CC1=C(C(=O)Nc2ccc3[nH]ncc3c2)C(c2ccc3ccccc3c2)CC(=O)N1 (centres unmarked) [GSK270822A] when tested on MLK2.
100%

Report value only: Percent Control, MLK2, NS(=O)(=O)c1ccc(N/N=C2\C(=O)Nc3ccc(C(=O)NCCc4c[nH]cn4)cc32)cc1 [GW300660X]
100%

Enter Percent Control (test system MLK2) for COc1ccc(COc2ccc(Cc3cnc(N)nc3N)cc2OC)cc1 [GW632580X]
53%

Recall the reported Percent Control of Cl.O=S1CCN(Cc2ccc(-c3ccc4ncnc(Nc5ccc(OCc6ccccc6)c(F)c5)c4c3)o2)CC1 [GW576924A] on MLK2 and write it down.
100%

Name the value of Percent Control reported for O=C(Nc1n[nH]c2nc(-c3ccc(O)cc3)c(Br)cc12)C1CC1 [SB-725317] when tested on MLK2.
100%

Tell me its Percent Control on MLK2: NS(=O)(=O)c1ccc(N/N=C2\C(=O)Nc3ccc(Cl)cc32)cc1 [GW280670X]
98%

With MLK2 as the test system, provide measured Percent Control for this compound: C[C@@H](Oc1cc(-n2cnc3ccc(OC4CCN(C)CC4)cc32)sc1C(N)=O)c1ccccc1Cl [GSK579289A]
86%
